Recorded values, source ChEMBL document CHEMBL1909046.

# study target: D(3) dopamine receptor (Homo sapiens)
# Sequence (P35462 whole entry): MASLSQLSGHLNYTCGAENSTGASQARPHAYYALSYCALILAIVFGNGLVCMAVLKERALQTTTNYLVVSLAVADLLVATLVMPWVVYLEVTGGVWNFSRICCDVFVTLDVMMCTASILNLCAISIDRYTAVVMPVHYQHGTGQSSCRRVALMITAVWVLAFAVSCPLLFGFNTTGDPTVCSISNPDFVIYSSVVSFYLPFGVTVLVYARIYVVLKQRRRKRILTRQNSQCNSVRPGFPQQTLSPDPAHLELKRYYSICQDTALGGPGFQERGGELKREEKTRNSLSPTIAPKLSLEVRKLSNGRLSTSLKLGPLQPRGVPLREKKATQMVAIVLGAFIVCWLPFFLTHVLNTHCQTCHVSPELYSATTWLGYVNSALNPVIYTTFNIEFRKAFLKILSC
# protocol details: DRUGMATRIX: Dopamine D3 radioligand binding (ligand: [3H] Spiperone)
# Assay type: cell membranes, CHO, Membrane
# reported conditions: read-out: Ki
pKi: −log10 of the molar value.
Could you label it Criterion met if measured pKi is 6 or higher, and Criterion not met otherwise?

Below are worked cases with known answers.
IN: Confirm if pKi reported for the molecule "CC(C)C[C@H]1C(=O)N2CCC[C@H]2[C@]2(O)O[C@](NC(=O)[C@@H]3C=C4c5cccc6[nH]c(Br)c(c56)C[C@H]4N(C)C3)(C(C)C)C(=O)N12" is 6 or above.
OUT: Criterion met

IN: Confirm if pKi reported for the molecule "C#C[C@]1(O)CC[C@H]2[C@@H]3CCC4=Cc5oncc5C[C@]4(C)[C@H]3CC[C@@]21C" is 6 or above.
OUT: Criterion not met

IN: Confirm if pKi reported for the molecule CC(CCc1ccc(O)cc1)NCCc1ccc(O)c(O)c1 (stereo unspecified) is 6 or above.
OUT: Criterion not met

IN: Confirm if pKi reported for the molecule CN1C[C@H](C(=O)N[C@]2(C)O[C@@]3(O)[C@@H]4CCCN4C(=O)[C@H](Cc4ccccc4)N3C2=O)C[C@@H]2c3cccc4[nH]cc(c34)C[C@H]21 [DIHYDROERGOTAMINE] is 6 or above.
OUT: Criterion met

Next:
IN: Confirm if pKi reported for the molecule CC[C@@H](CO)NC(=O)[C@@H]1C=C2c3cccc4c3c(cn4C)C[C@H]2N(C)C1 [METHYSERGIDE] is 6 or above.
OUT: Criterion met

* * *

# study target: Cytochrome P450 2A6 (Homo sapiens); note: in other assays of this panel Not Active means under 50% inhibition at 10 µM
# Sequence (P11509 whole entry): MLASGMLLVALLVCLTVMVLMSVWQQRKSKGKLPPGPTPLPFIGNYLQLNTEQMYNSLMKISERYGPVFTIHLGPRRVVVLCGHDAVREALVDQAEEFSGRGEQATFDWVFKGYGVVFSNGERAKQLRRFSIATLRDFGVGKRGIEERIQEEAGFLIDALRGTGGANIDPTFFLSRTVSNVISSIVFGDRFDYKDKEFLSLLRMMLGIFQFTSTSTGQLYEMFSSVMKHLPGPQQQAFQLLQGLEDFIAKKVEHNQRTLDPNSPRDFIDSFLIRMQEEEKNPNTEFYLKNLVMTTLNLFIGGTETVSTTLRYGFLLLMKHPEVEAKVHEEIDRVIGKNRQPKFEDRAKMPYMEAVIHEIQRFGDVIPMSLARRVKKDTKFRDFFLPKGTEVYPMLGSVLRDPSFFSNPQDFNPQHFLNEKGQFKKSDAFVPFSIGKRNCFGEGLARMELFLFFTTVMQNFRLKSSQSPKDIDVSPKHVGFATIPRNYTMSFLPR
# reported conditions: bti-tn-5b1-4
measure name: IC50

IN: Name the recorded IC50 of the item O=P1(N(CCCl)CCCl)NCCCO1 (stereo not drawn) [CYCLOPHOSPHAMIDE ANHYDROUS] in your answer.
OUT: Not Active

IN: Name the recorded IC50 of the item "[N-]=[N+]=CC(=O)OC[C@H](N)C(=O)O" in your answer.
OUT: Not Active

IN: Name the recorded IC50 of the item "CC[C@H]1OC(=O)[C@H](C)[C@@H](O[C@H]2C[C@@](C)(OC)[C@@H](O)[C@H](C)O2)[C@H](C)[C@@H](O[C@@H]2O[C@H](C)C[C@H](N(C)C)[C@H]2O)[C@](C)(OC)C[C@@H](C)C(=O)[C@H](C)[C@@H](O)[C@]1(C)O" in your answer.
OUT: Not Active
